- System: UACC-62
- experiment.description: NCI tumour cell line growth inhibition, 48 h
Active and inactive are the calls of the source. Rule as the data show it: active = GI50 up to about 1.1 µM and inactive = higher.
Possible outcomes: t (active), f (inactive)

compound=CCC1=C(C)C(=O)N/C1=C\c1[nH]c(C)c([C@H](C)CCN)c1C label_class=f
compound=O=c1[nH]nc(-c2ccccc2)n1-c1cccc([N+](=O)[O-])c1 label_class=f
compound=CC1(C)O[C@H]([C@H](O)c2nnc3ccc(Cl)nn23)[C@@H]([C@H]2COC(C)(C)O2)O1 label_class=f
compound=COc1cc(NCC(C#N)C#N)ccc1/N=N/c1ccc(Cl)cc1 label_class=f
compound=O=[N+]([O-])c1ccc(-n2nc3ccc4nonc4c3n2)cc1 label_class=f
compound=O=C(/C=C/c1ccc2c(c1)OCO2)NCc1ccco1 label_class=f
compound=O=c1[nH]nc(Cc2ccc(Cl)cc2)n1/N=C\c1ccc(/C=N/n2c(Cc3ccc(Cl)cc3)n[nH]c2=O)cc1 label_class=f
compound="NC(Cc1cc(I)c(Oc2ccc(O)c(I)c2)c(I)c1)C(=O)O (centres undefined)" label_class=f
compound=O=c1ccc2ccc(S)cc2o1 label_class=f
compound=O=C1/C(=N\NC(=S)NC2CCCCC2)c2cc([N+](=O)[O-])ccc2N1CN1CCOCC1 label_class=f
compound="CCCC(=O)Nc1cc(/C=C/C(=O)N2CC(CCl)c3ccc([N+](=O)[O-])cc32)n(C)c1 (centres undefined)" label_class=f
compound="CN1C=COC1N=C1CCCCC1 (centres undefined)" label_class=f
compound=CCCSc1ccc2[nH]c(N3C(=O)/C(=C/c4cc(OC)c(OC)c(OC)c4)N=C3c3ccccc3)cc2c1 label_class=f
compound=Nc1ccc2c(c1)C(=O)N(OS(=O)(=O)c1ccccc1)C2=O label_class=f
compound="CC1=CP(=O)(OC(C)C)C=C(C)C1=C(Cl)Cl (centres undefined)" label_class=f
compound=Nc1[nH]nc2ccccc12 label_class=f
compound=COc1ccc(-c2c3c(cc4cc5c(cc24)OCO5)C(=O)OC3)cc1OC label_class=t
compound="CC1(C)C2CC(O)C1CCC2=O (centres undefined)" label_class=f
compound=Cc1ccc(NC(=O)C(=O)Cc2cccc[n+]2[O-])cc1C label_class=f
compound=Cc1ccc(NC(=O)CC/C(CC(=O)c2ccc(F)cc2)=N\NC(=O)C(=O)NN)cc1C label_class=f
compound="CC(C)C1=CC(=O)C(C)(C2=NC(C)(C)CO2)c2ccccc21 (centres undefined)" label_class=f
compound=CN1CCCN2CCN(C)CCCN(CC1)CC2 label_class=f
compound=CC(C)(c1ccc(Oc2ccc(C#N)c(C#N)c2)cc1)c1ccc(Oc2ccc(C#N)c(C#N)c2)cc1 label_class=f
compound=S=C(N/N=C(/c1ccccc1)c1ccccn1)N1CCCCC1 label_class=t
compound="CC1(C)OCC(COC(=O)C=[N+]=[N-])O1 (centres undefined)" label_class=f
compound=CCOC(=O)O/N=C1/C(=C2/C(=O)Nc3ccccc32)Nc2ccccc21 label_class=f
compound=Cc1ccn2c(CCc3nnc4cc(C)ccn34)nnc2c1 label_class=f
compound=C=CCN1C(N)=C(C(N)=O)S/C1=C1/SC(=S)N(c2ccc(C)cc2)C1=O label_class=f
compound=O=S1(=O)CS(=O)(=O)OCCCO1 label_class=f
compound=NC(=O)c1cc(N(CCO)CCO)c([N+](=O)[O-])cc1[N+](=O)[O-] label_class=f
compound="CC1(C)OC1COc1c2occc2cc2ccc(=O)oc12 (centres undefined)" label_class=f
compound=O=C1CN(c2ccc(Cl)cc2)C(=O)CN1NCNN1CC(=O)N(c2ccc(Cl)cc2)CC1=O label_class=f
compound=Oc1nc2cc3nc(O)c(O)nc3cc2nc1O label_class=f
compound="COc1ccc2nc(-c3cccs3)cc(C(O)CN3CCSCC3)c2c1 (centres undefined)" label_class=f
compound="CC1(C)CCCC2(C)[C@@H]1CC[C@]13C[C@](C)(CC[C@@H]21)[C@@H]3CO (some centres undefined)" label_class=f
compound="COC(=O)C(Cc1ccccc1I)C1=CCC2(CC1)OCCO2 (centres undefined)" label_class=f
compound="COC(=O)C1=C(C(=O)OC)C2(c3ccccc3)c3ccccc3C(=O)C1N2C1CCCCC1 (centres undefined)" label_class=f
compound=C[N+](C)(C)C1=NNC2=Nc3ccccc3SC2=C1 label_class=f
compound=COc1ccc2nc3ccccc3c(NCCCCCCN(CCCl)CCCl)c2c1 label_class=t
compound=CCOc1cc2c(OCc3ccccc3)cc3c4cc(OC)c(OC)cc4c[n+](C)c3c2cc1OC label_class=f
compound=Clc1ccc2[nH]c(CCSCCc3nc4ccc(Cl)cc4[nH]3)nc2c1 label_class=f
compound="O=C(CC(=O)N1N=C(N2CCCCC2)CC1c1ccccc1)Nc1ccccc1 (centres undefined)" label_class=f
compound="C=C(C)C1CC2(C)C(C)CC(O)CC2C(OC(=O)C=C(C)C)C1O (centres undefined)" label_class=f
compound="CC(=O)c1ccccc1NC(=O)C(=O)C(C(=O)c1ccccc1-c1ccccc1)C1OC(=O)c2ccccc21 (centres undefined)" label_class=f
